Tested on: CCRF-CEM
Assay: NCI tumour cell line growth inhibition, 48 h
Active and inactive are the calls of the source. Cut-off read from the data, not from the text of the source: active = GI50 up to about 1.1 µM and inactive = higher.
Hi there, use one of these labels in your reply, thanks! active, inactive

See these solved cases before continuing.
{"compound": "O=[N+]([O-])c1ccc2c3ccccc3[s+]([O-])c2c1 (stereo not given)", "class.name": "inactive"}
{"compound": "Cc1ccc(NC(=O)CC(=O)n2nc(C)c(/N=N/c3ccccc3C(=O)O)c2C)cc1", "class.name": "inactive"}
{"compound": "CC1=C(C(=O)Nc2c(C)cccc2C)C(c2ccccc2Cl)C(C(=O)Nc2c(C)cccc2C)=C(C)N1", "class.name": "inactive"}
{"compound": "CC1=C(C#N)C23C(=O)c4ccccc4C(=O)C2=C(O)C=CC3(O)N1 (stereo not given)", "class.name": "active"}

Would you mind telling me which call this test gave `O=C(Nc1cccc2c1[nH]c1c(-c3ccccc3)nccc12)c1ccccc1[N+](=O)[O-]` ?
inactive

Would you mind telling me which call this test gave COc1cccc(CC2C(=O)N/C(=N\C(C)=O)N2C)c1OC(C)=O (stereo not given) ?
inactive

Would you mind telling me which call this test gave Nc1nc(=O)n(C2OC(CO)C(O)C2O)cc1F (stereo not given) ?
active

Would you mind telling me which call this test gave `O=CNc1cccc2c3c([nH]c12)CCCCCC3` ?
inactive

Would you mind telling me which call this test gave `Oc1ccccc1/C=N/c1ccccc1/N=C/c1ccccc1O` ?
inactive

Would you mind telling me which call this test gave `CCOC(=O)CC(=O)Nc1c(C(=O)OCC)sc2nc(SC)nc(Nc3ccc(OC)c(OC)c3)c12` ?
inactive
